Endpoint: pIC50. System: PDE7B (Homo sapiens (Human)). Items follow.
Sequence (Q9NP56 whole entry): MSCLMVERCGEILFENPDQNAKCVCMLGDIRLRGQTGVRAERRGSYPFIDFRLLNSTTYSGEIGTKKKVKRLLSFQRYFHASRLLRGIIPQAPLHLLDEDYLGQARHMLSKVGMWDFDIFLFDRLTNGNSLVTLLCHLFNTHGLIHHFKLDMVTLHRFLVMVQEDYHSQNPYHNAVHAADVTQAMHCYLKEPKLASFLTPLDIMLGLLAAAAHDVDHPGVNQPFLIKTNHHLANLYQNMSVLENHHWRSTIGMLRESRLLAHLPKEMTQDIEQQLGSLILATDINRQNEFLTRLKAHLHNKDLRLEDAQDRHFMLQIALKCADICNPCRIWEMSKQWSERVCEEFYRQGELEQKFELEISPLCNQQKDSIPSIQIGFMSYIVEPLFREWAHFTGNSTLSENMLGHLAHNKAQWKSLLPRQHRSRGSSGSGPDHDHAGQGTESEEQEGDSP
pIC50: −log10 of the molar value.

Reference set (2 entries):
# molecule, outcomeMeasure, result
measured = [
    ("Cc1nn(CC(C)C)c2sc(C(=O)N[C@H]3CC[C@H](N4CCN(CC(F)F)CC4)CC3)cc12 [II-8]", "pIC50", "7.00 to 7.52"),
    ("Cc1nn(CC(C)C)c2sc(C(=O)N[C@H]3CC[C@H](N4CCOCC4)CC3)cc12 [II-14]", "pIC50", "7.00 to 7.52"),
]

According to the records, this molecule Cc1nn(CC(C)(C)C)c2sc(C(=O)N[C@H]3CC[C@H](N4CC(F)(F)C4)CC3)cc12 [II-30] displays pIC50 of > 8.00

The recorded pIC50 for COC1CN([C@H]2CC[C@H](NC(=O)c3cc4c(C)nn(CC(C)(C)C)c4s3)CC2)C1 [II-45] is 7.52 to 8.00

---

System: PDE7A (Homo sapiens (Human), UniProt Q13946) | Read-out: IC50
Sequence (Q13946 whole entry): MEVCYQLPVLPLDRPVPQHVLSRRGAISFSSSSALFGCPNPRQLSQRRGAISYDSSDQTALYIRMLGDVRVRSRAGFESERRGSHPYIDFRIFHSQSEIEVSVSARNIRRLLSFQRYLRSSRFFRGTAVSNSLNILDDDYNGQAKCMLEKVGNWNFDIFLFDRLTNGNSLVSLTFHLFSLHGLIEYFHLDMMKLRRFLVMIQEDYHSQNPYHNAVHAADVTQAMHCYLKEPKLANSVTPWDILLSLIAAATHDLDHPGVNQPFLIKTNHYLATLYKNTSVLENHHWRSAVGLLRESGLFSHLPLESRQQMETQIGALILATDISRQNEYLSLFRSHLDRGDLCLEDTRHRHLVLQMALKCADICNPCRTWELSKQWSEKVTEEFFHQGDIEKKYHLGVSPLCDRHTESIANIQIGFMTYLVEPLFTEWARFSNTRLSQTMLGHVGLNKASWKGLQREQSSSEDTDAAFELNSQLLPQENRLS

# molecule, experimentalTarget, IC50
measured = [
    ("CC(=O)N1CCN([C@H]2C[C@H](NC(=O)c3cc4c(C)nn(-c5ccccc5Cl)c4s3)C2)CC1 [Compound I-5]", "PDE7A (Homo sapiens (Human), UniProt Q13946)", "30 to 100 nM"),
    ("Cc1nn(CC(C)C)c2sc(C(=O)N[C@H]3CC[C@H](N4CCN(CC(F)(F)F)CC4)CC3)cc12 [II-7]", "PDE7A (Homo sapiens (Human), UniProt Q13946)", "30 to 100 nM"),
    ("CC(=O)N1CCN([C@H]2C[C@H](NC(=O)c3cc4c(C)nn(C5CCC(F)(F)CC5)c4s3)C2)CC1 [II-29]", "PDE7A (Homo sapiens (Human), UniProt Q13946)", "10 to 30 nM"),
    ("Cc1nn(C2CCC(F)(F)CC2)c2sc(C(=O)N[C@H]3CC[C@H](N4CCN(C5CC5)CC4)CC3)cc12 [II-15]", "PDE7A (Homo sapiens (Human), UniProt Q13946)", "10 to 30 nM"),
    ("Cc1nn(CC2CCC2)c2sc(C(=O)N[C@H]3CC[C@H](N4CCN(C5CC5)CC4)CC3)cc12 [II-20]", "PDE7A (Homo sapiens (Human), UniProt Q13946)", "30 to 100 nM"),
    ("Cc1nn(C2CCC(F)(F)CC2)c2sc(C(=O)N[C@H]3CC[C@H](N4CCN(C(C)C)CC4)CC3)cc12 [II-10]", "PDE7A (Homo sapiens (Human), UniProt Q13946)", "< 10 nM"),
    ("Cc1nn(C2CCC(F)(F)CC2)c2sc(C(=O)N[C@H]3CC[C@H](N4CC(F)(F)C4)CC3)cc12 [II-17]", "PDE7A (Homo sapiens (Human), UniProt Q13946)", "< 10 nM"),
]

Below: the item to evaluate.
Case Cc1nn(CC(C)(C)C)c2sc(C(=O)Nc3ccc(N4CCOCC4)c(C#N)c3)cc12 [II-40] , PDE7A (Homo sapiens (Human), UniProt Q13946), IC50 recorded as 100 to 500 nM
